Could you please report measured IC50 for the items listed next?
Tested on: HOP-62;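 note: cell growth inhibition determined with a viability assay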
protocol: cells
Type: functional, cell-based, Homo sapiens
run_parameters: Homo sapiens, HOP-62
Description: SANGER: Inhibition of human HOP-62 cell growth in a cell viability assay.
Numbers only, in µM.

Req: Need IC50, item `OC[C@H](Cc1ccccc1)Nc1nc(Oc2ccc3c(c2)CCC3)nc2c1ncn2Cc1ccc(-c2ccccc2)cc1`
Resp: 3.45

Kindly consider the entry below.
Req: Need IC50, item `CN(NC(=O)CC(=O)NN(C)C(=S)c1ccccc1)C(=S)c1ccccc1`
Resp: 0.122

###

Tested on: CGTH-W-1;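 note: growth inhibition of human CGTH-W-1 cells measured by cell viability assay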
protocol: cells
Type: functional, cell-based, Homo sapiens
run_parameters: cgth-w-1
Description: SANGER: Inhibition of human CGTH-W-1 cell growth in a cell viability assay.
pIC50: −log10 of the molar value. Where a SMILES comes first, the peptide text is derived from it. The star is where a group is joined. Cbz = O=C(OCc1ccccc1)*
endpoint: pIC50

Req: Need pIC50, item CC(C)C[C@@H](C=O)NC(=O)[C@H](CC(C)C)NC(=O)[C@H](CC(C)C)NC(=O)OCc1ccccc1 [MG-132] (Cbz-Leu-Leu-Leu-aldehyde)
Resp: < 6.00
